Origin of the recorded values: PubChem BioAssay AID652115

assay system: NAD-dependent protein deacylase sirtuin-5, mitochondrial (Homo sapiens)
protocol description: blockers of sirtuin-5 deacylase activity – biochemical, fluorescence imaging, single point, set 5, primary screen (AID 652115)
recorded conditions: Purified SirT5, succinyl-peptide AMC, trypsin-coupled fluorescence; at 15 µM; hits give high values
About 3,800 (1.2%) of roughly 330,000 compounds were called active. The full list was thinned out, with actives kept by preference.
property label: inhibition

Known inhibition results, listed for orientation:
inhibition value, target or system NAD-dependent protein deacylase sirtuin-5, mitochondrial (Homo sapiens), for `COCC(=O)N1CC(=O)N2[C@H](CO)[C@@H](c3ccc(C#CC4CCCCC4)cc3)[C@@H]2C1` : -3.9% (inactive)

inhibition value, target or system NAD-dependent protein deacylase sirtuin-5, mitochondrial (Homo sapiens), for `C[C@@H]1CN([C@H](C)CO)S(=O)(=O)c2ccc(C#CCC3CCCC3)cc2O[C@H]1CN(C)C(=O)CC1CC1` : 9.26% (inactive)

inhibition value, target or system NAD-dependent protein deacylase sirtuin-5, mitochondrial (Homo sapiens), for CC1COc2ccccc2N1C(=O)c1cccnc1Cl (configuration not stated) : -1.34% (inactive)

inhibition value, target or system NAD-dependent protein deacylase sirtuin-5, mitochondrial (Homo sapiens), for `C[C@H]1CN([C@@H](C)CO)S(=O)(=O)c2ccc(C#CCN(C)C)cc2O[C@@H]1CN(C)Cc1ccc(F)cc1` : -1.1% (inactive)

inhibition value, target or system NAD-dependent protein deacylase sirtuin-5, mitochondrial (Homo sapiens), for `COc1ccc(/C=C2\SC(=S)N(CC(=O)NNC(=O)c3ccncc3)C2=O)cc1` : 36.3% (active)

New cases:
inhibition value, target or system NAD-dependent protein deacylase sirtuin-5, mitochondrial (Homo sapiens), for `CCNC(=O)C[C@H]1CC[C@@H]2[C@H](COC[C@H](O)CN2C(=O)Nc2c(C)noc2C)O1` : -2.07% (inactive)

inhibition value, target or system NAD-dependent protein deacylase sirtuin-5, mitochondrial (Homo sapiens), for `C[C@H](O)C#Cc1cnc2c(c1)C(=O)N([C@@H](C)CO)C[C@H](C)[C@@H](CN(C)C(=O)c1ccccc1)O2` : -1.59% (inactive)

inhibition value, target or system NAD-dependent protein deacylase sirtuin-5, mitochondrial (Homo sapiens), for CC1COc2ccccc2N1C(=O)c1ccc(F)cc1 (configuration not stated) : 22.7% (active)

inhibition value, target or system NAD-dependent protein deacylase sirtuin-5, mitochondrial (Homo sapiens), for CC1COc2ccccc2N1S(=O)(=O)c1ccccc1 (configuration not stated) : -1.33% (inactive)

inhibition value, target or system NAD-dependent protein deacylase sirtuin-5, mitochondrial (Homo sapiens), for `CO[C@@H]1CN(C)C(=O)c2ccc(NC(=O)c3cccc(Oc4ccccc4)c3)cc2OC[C@H](C)NC[C@@H]1C` : 0.913% (inactive)

inhibition value, target or system NAD-dependent protein deacylase sirtuin-5, mitochondrial (Homo sapiens), for `C[C@H]1CCCCO[C@H](CN(C)C(=O)Nc2ccccc2)[C@@H](C)CN([C@@H](C)CO)C(=O)c2cc(NC(=O)Nc3ccc4c(c3)OCO4)ccc2O1` : 11.6% (inactive)

inhibition value, target or system NAD-dependent protein deacylase sirtuin-5, mitochondrial (Homo sapiens), for `O=C(CC1CC1)Nc1ccc2c(c1)[C@@H]1C[C@@H](CC(=O)NC3CCCCC3)O[C@@H](CO)[C@@H]1O2` : -2.5% (inactive)

inhibition value, target or system NAD-dependent protein deacylase sirtuin-5, mitochondrial (Homo sapiens), for `C[C@@H]1CN([C@H](C)CO)S(=O)(=O)c2ccc(C#CCC3CCCC3)cc2O[C@H]1CN(C)Cc1ccc(C(=O)O)cc1` : 15.8% (active)
